Please consider the recorded GI50 for A498 in what follows.

{"compound": "COc1cc(-c2n[nH]nc2-c2ccc3ccccc3n2)cc(OC)c1OC [Example 4]", "GI50": "< 10 nM"}
{"compound": "COc1ccc(-c2n[nH]nc2-c2cc(OC)cc(OC)c2)cc1 [Example 5]", "GI50": "< 10 nM"}

Q) Report GI50 for COc1ccc(-c2n[nH]nc2-c2cc(OC)c(OC)c(OC)c2)cc1 [Example 6] tested on A498.
A) < 10 nM
